Entries with their measured IC50, system Tyrosine-protein kinase HCK (Homo sapiens, UniProt P08631):
ENDPOINT LABEL: IC50 (nM)

>>> numeric_result("CCN1CCN(c2cc(C(=O)Nc3ccc(C)c(Nc4nc5ccccc5n4-c4cc(N)ncn4)c3)cc(C(F)(F)F)c2)CC1")
16
>>> numeric_result("Cc1ccc(NC(=O)c2cccc(C(F)(F)F)c2)cc1Nc1nc2ccccc2n1-c1cc(NCCO)ncn1")
192
>>> numeric_result("COCCNc1cc(-n2c(Nc3cc(NC(=O)c4cccc(C(F)(F)F)c4)ccc3C)nc3ccccc32)ncn1")
405
>>> numeric_result("Cc1cccc(C(=O)Nc2ccc(C)c(Nc3nc4ccccc4n3-c3cc(N)ncn3)c2)c1")
245
>>> numeric_result("Cc1ccc(NC(=O)c2cccc(C(F)(F)F)c2)cc1Nc1nc2ccccc2n1-c1cc(NCCN2CCN(C)CC2)ncn1")
69

I. Cc1ccc(NC(=O)c2cccc(C(F)(F)F)c2)cc1Nc1nc2ccccc2n1-c1cc(NCCCCN(C)C)ncn1
II. Cc1ccc(NC(=O)c2cccc(C(F)(F)F)c2)cc1Nc1nc2ccccc2n1-c1cc(NCCCN)ncn1
III. Cc1ccc(C(=O)Nc2cccc(C(F)(F)F)c2)cc1Nc1nc2ccccc2n1-c1cc(NCCCN2CCN(C)CC2)ncn1
Lookup: Order by IC50, ascending. Answer by naming the labels in the order asked.
Found: I, III, II

P. Cc1ccc(NC(=O)c2cc(OC3CCN(C)CC3)cc(C(F)(F)F)c2)cc1Nc1nc2ccccc2n1-c1cc(N)ncn1
Q. CCN(CC)CCCCNc1cc(-n2c(Nc3cc(NC(=O)c4cccc(C(F)(F)F)c4)ccc3C)nc3ccccc32)ncn1
R. Cc1ccc(NC(=O)c2cc(CN3CCN(C)CC3)n(C(C)(C)C)n2)cc1Nc1nc2ccccc2n1-c1cc(N)ncn1
Lookup: Arrange the 3 molecules from largest to smallest IC50. Answer by naming the labels in the order asked.
Found: Q, P, R
